- Test system: Wolbachia pipientis
- Measurement protocol: Anti-Wolbachia Cell-Based Screen
- Format: functional
- Design: scale not given: in the data most compounds retested in dose-response had high values
- Reported conditions: 5 µM
Among all 48,000 compounds or so, about 13,000 (27%) showed an effect of 50% or more. The list shows a part of the results.
Attribute: Percent Effect
Kindly provide the numeric value in % only, without the unit symbol.

COc1ccc(Cl)cc1C(=O)NCC1CCN(C(=O)c2ccoc2)CC1 :: -13.86
Cc1cc(Cl)ccc1C(=O)N1C[C@H](C2CC2)[C@@H](N)C1 :: -41.17
CNC(=O)C1CCCCN1C(=O)c1cn(CCOC)c2ccccc12 (stereo not given) :: -5.579
Cc1nnc(N2CCO[C@H]3[C@@H](OCc4ccccn4)CC[C@@H]32)s1.O=C(O)C(F)(F)F.O=C(O)C(F)(F)F :: 0.4576
CNC(=O)C1CCCCN1C(=O)c1csc(-c2ccccc2)n1 (stereo not given) :: -0.9781

IN: Item under review: Fc1cnc(N2CCO[C@H]3[C@H](OCCN4CCCC4)CC[C@@H]32)nc1.O=C(O)C(F)(F)F . Reported Percent Effect?
OUT: 101.9

IN: Continue with COc1ccc(N2CCC(N3C[C@H](NC(C)=O)[C@@H](C(C)C)C3)CC2)cc1
OUT: 0.1798

IN: Continue with COc1ccc(Cl)cc1C(=O)N1CCCC(n2nc(C)nc2C)C1 (stereo not given)
OUT: -10.83

IN: Continue with CC(=O)N1CCO[C@@H]2CN(S(=O)(=O)C3CC3)CC[C@@H]2C1
OUT: 114.1

IN: Continue with CC1CCCCN1C(=O)c1n[nH]c(=O)c2ccccc12 (stereo not given)
OUT: 115.2

====

- Tested on: Wolbachia pipientis
- Measurement protocol: Anti-Wolbachia Cell-Based Screen
- Format: functional
- Parameters: scale not given: in the data most compounds retested in dose-response had high values
- Reported conditions: 5 µM
In all, about 48,000 compounds went through this assay and about 13,000 (27%) showed an effect of 50% or more. The list shows a part of the results.
Attribute: Percent Effect
Kindly provide the numeric value in % only, without the unit symbol.

Below are worked cases with known answers.
O=C(CNc1cc2c(cc1Br)OCCO2)NC1CCS(=O)(=O)C1 (stereo unspecified) :: -16.13
Cc1csc(NC(=O)CN(C)CC2CCCN2c2cccnn2)n1 (stereo unspecified) :: 8.253
Cc1nc(CN2CCCC(N(C)CC(=O)Nc3cccnc3)C2)no1 (stereo unspecified) :: 13.61

IN: Item under review: CN(CC(=O)Nc1cccnc1)C1CCCN(c2cccnn2)C1 (stereo unspecified) . Reported Percent Effect?
OUT: 85.32

IN: Continue with CN(CC(=O)NC1(C#N)CCCC1)C1CCCN(c2cccnn2)C1 (stereo unspecified)
OUT: 1.351

IN: Continue with Cc1nnc(NC(=O)CN(C)CC2CCCN2c2cccnn2)s1 (stereo unspecified)
OUT: -3.874

====

- Test system: Wolbachia pipientis
- Measurement protocol: Anti-Wolbachia Cell-Based Screen
- Assay type: functional
- Design: scale not given: in the data most compounds retested in dose-response had high values
- Reported conditions: 5 µM
Hit rate of the full screen: of about 48,000 compounds, about 13,000 (27%) showed an effect of 50% or more. Some of the results follow.
Attribute: Percent Effect
Kindly provide the numeric value in % only, without the unit symbol.

Below are worked cases with known answers.
CC(=O)NC1CCCN(C(=O)NCc2ccc(-c3ccn[nH]3)cc2)C1 (stereo unspecified) :: 11.01
Cc1cc(N(C)Cc2cc(C)on2)n2nc(C)c(C)c2n1 :: -5.11

IN: Item under review: CCCN(C(=O)c1ccncc1)c1nc2c(s1)CCc1c-2cnn1C . Reported Percent Effect?
OUT: 62.27

IN: Continue with COC(=O)NC1(C(=O)NCc2ccc(-c3ccn[nH]3)cc2)CCCC1
OUT: -10.61

IN: Continue with CCCN(C(=O)COC)c1nc2c(s1)CCc1c-2cnn1C
OUT: 1.347

IN: Continue with CCc1nnc(CN(C)c2cc(C)nc3c(C)c(C)nn23)o1
OUT: 7.383

IN: Continue with O=C(NCCCn1nc2ccccn2c1=O)NC1CCC(O)CC1 (stereo unspecified)
OUT: -5.846

IN: Continue with CNC(=O)C1CCN(C(=O)NCc2ccc(C)n2C)CC1
OUT: -3.399

IN: Continue with c1cc(-c2c[nH]c([C@@H]3COCCN3C3CCOCC3)n2)ccn1
OUT: -2.86

IN: Continue with NC(=O)CC1CCN(C(=O)NCc2ccc(-c3ccn[nH]3)cc2)CC1
OUT: 131.5

IN: Continue with CNC(=O)C1CCN(C(=O)NCc2ccc(-c3ccn[nH]3)cc2)CC1
OUT: 139.8

====

- System: Wolbachia pipientis
- Measurement protocol: Anti-Wolbachia Cell-Based Screen
- Assay type: functional
- Set-up: scale not given: in the data most compounds retested in dose-response had high values
- Reported conditions: 5 µM
About 13,000 (27%) of roughly 48,000 compounds showed an effect of 50% or more. Some of the results follow.
Metric: Percent Effect (%)
Kindly provide the numeric value in % only, without the unit symbol.

CC(NC(=O)CCCc1ccc(Cl)cc1)c1nnn[nH]1 (configuration not stated) :: -9.693
NC(=O)CCC1CCCN(c2ccc3ccc(F)cc3n2)C1 (configuration not stated) :: 91.08
CC(C)OCc1cccc(NC(=O)N2CCCC(CCC(N)=O)C2)c1 (configuration not stated) :: -9.131

// below: Percent Effect requested for another molecule
IN: Item under review: O=C(O)c1cn(CC2CCCN(c3ccc4ccccc4n3)C2)nn1 (configuration not stated) . Reported Percent Effect?
OUT: -23.62

====

- Tested on: Wolbachia pipientis
- Measurement protocol: Anti-Wolbachia Cell-Based Screen
- Assay type: functional
- Design: scale not given: in the data most compounds retested in dose-response had high values
- Reported conditions: 5 µM
Screen size: about 48,000 compounds; about 13,000 (27%) showed an effect of 50% or more. This is one part of the list.
Attribute: Percent Effect
Kindly provide the numeric value in % only, without the unit symbol.

Below are worked cases with known answers.
Cc1nc(CN2C(=O)C[C@@H]3[C@@H]2CCN3S(=O)(=O)C2CC2)cs1 :: 97.85
CC(=O)N1CCC(N2CC[C@H](c3nc4cc(F)ccc4o3)C2)CC1 :: -6.986
Cc1nc(CN2C(=O)C[C@@H]3[C@@H]2CCN3C(=O)C2CCOCC2)cs1 :: 6.269
COc1ccc(OC)c(NC(=O)c2nc3ccccc3n(C)c2=O)c1 :: 10.54
N#CCCN(CC1CCOC1)S(=O)(=O)c1c(F)cccc1Cl (configuration not stated) :: 4.348

IN: Item under review: Cc1nnn2c1COCC(CNC(=O)c1ccc3[nH]ccc3c1)C2 (configuration not stated) . Reported Percent Effect?
OUT: 13.15

IN: Continue with CC(C)N1CCC2(CC1)CN(C)C(=O)C[C@H]2C(F)(F)F
OUT: -3.989

IN: Continue with CCc1nc(C2CCCN2C(=O)c2ccc3c(c2)nnn3CC)no1 (configuration not stated)
OUT: -4.092

IN: Continue with CNC(=O)C1CCC2(CCN(c3ncc(C)cn3)CC2)CO1 (configuration not stated)
OUT: -6.735

IN: Continue with Cn1cccc1-c1nnc(C2(c3ccc4c(c3)OCO4)CCOCC2)o1
OUT: -12.47

====

- System: Wolbachia pipientis
- Measurement protocol: Anti-Wolbachia Cell-Based Screen
- Assay type: functional
- Parameters: scale not given: in the data most compounds retested in dose-response had high values
- Reported conditions: 5 µM
Out of some 48,000 compounds screened, about 13,000 (27%) showed an effect of 50% or more. The list shows a part of the results.
Metric: Percent Effect (%)
Kindly provide the numeric value in % only, without the unit symbol.

Below are worked cases with known answers.
Cc1cc(NC(=O)NCC2CCOC2)no1 (configuration not stated) :: -3.66
CNC(=O)C(CCSC)NC(=O)c1ccc2ccccc2n1 (configuration not stated) :: 4.672
CSCCC(NC(N)=O)C(=O)N1CCC(Cc2ccccc2)CC1 (configuration not stated) :: -1.467
CSCCC(Nc1nc(C)cc(C)n1)C(=O)NC1CC1 (configuration not stated) :: 102.4
CCCc1nc(C(=O)N2C[C@H](CO)C[C@H](CN3CCOCC3)C2)cs1 :: -13.1

IN: Item under review: CSCCC(NC(=O)c1ccc2ccccc2n1)C(=O)NC(C)C (configuration not stated) . Reported Percent Effect?
OUT: 0.7963

IN: Continue with Cc1cc(C)nc(NC2CCC(=O)N(C)C2)n1 (configuration not stated)
OUT: -12.68

====

- Test system: Wolbachia pipientis
- Measurement protocol: Anti-Wolbachia Cell-Based Screen
- Format: functional
- Parameters: scale not given: in the data most compounds retested in dose-response had high values
- Reported conditions: 5 µM
About 13,000 (27%) of roughly 48,000 compounds showed an effect of 50% or more. The list shows a part of the results.
Metric: Percent Effect (%)
Kindly provide the numeric value in % only, without the unit symbol.

Below are worked cases with known answers.
CO[C@H]1CCN(S(=O)(=O)c2cn(C)cn2)[C@H]1Cc1ccncc1 :: -4.113
COCCNC(=O)[C@@H]1CC[C@@H]2[C@@H](CCN2Cc2cnn(C)c2)O1 :: -9.722
CN(C)C(=O)c1cc(S(=O)(=O)N2CCCC2Cn2ccnc2)cn1C (stereo not given) :: 11.52

IN: Item under review: CCN(CC)[C@@H]1CN(S(=O)(=O)c2cn(C)cn2)[C@@H]2CCCO[C@H]12 . Reported Percent Effect?
OUT: -3.081

IN: Continue with CN(C)c1ncc(C(=O)N2C[C@H]3C[C@H](Oc4ccccc4)C[C@H]3C2)cn1
OUT: 125.1

IN: Continue with CCC(CC)n1nc(C)cc1NC(=O)C1CCOC1 (stereo not given)
OUT: 10.26

IN: Continue with CC(C)N1CCc2ncn(C)c2C1C(=O)N1CCOCC1.O=C(O)C(F)(F)F (stereo not given)
OUT: -11.58

IN: Continue with CC(C)N1CCc2c(C(=O)N3CCOCC3)nn(C)c2C1.O=C(O)C(F)(F)F
OUT: 113.7

IN: Continue with O=C1CC(NS(=O)(=O)NCc2ccccc2)CN1c1ccccc1Cl (stereo not given)
OUT: 6.599

IN: Continue with Cn1cc(C(=O)N2CCCN(C3Cc4ccccc4C3)CC2)cn1
OUT: -3.221
